target: human plasma renin activity (Homo sapiens); construct: the human plasma contain and the substrate: angiotensinogen, and the enzyme: renin; from tissue; host or cells: pool of human plasma; test: Inhibition of the human plasma renin activity (P.R.A.); assay type: biochemical; conditions: pH 6, maleate buffer, incubation 30 minutes, 37° C., pool of human plasma; read-out: INHIBITION OF HUMAN P.R.A. (IC50) pH 6
Sequence (P00797 67-406): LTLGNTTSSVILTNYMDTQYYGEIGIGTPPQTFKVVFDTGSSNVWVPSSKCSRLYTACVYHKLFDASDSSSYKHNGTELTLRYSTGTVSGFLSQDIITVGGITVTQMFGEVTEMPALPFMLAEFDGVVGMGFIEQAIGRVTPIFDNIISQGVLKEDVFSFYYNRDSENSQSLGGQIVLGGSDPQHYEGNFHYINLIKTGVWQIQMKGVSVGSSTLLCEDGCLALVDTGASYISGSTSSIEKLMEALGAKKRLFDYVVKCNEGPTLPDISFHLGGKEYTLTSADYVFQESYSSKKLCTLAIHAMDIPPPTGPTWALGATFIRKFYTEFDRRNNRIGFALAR
Non-standard residues stand in square brackets, D forms with d. Residues, ends and D or L forms follow the SMILES beside them. *: point of attachment. Benzylsulfonyl = O=S(=O)(Cc1ccccc1)*; Sta = CC(C)C[C@H](N)[C@@H](O)CC(=O)O; Isovaleryl = CC(C)CC(=O)*; Cbz = O=C(OCc1ccccc1)*
measurement-label: IC50 (nM)

>  <molecule>
COC(=O)C[C@H](O)[C@H](CC(C)C)NC(=O)[C@H](C)NC(=O)C[C@H](O)[C@H](CC(C)C)NC(=O)[C@H](Cc1ccccc1)NC(=O)[C@H](Cc1ccccc1)NS(=O)(=O)Cc1ccccc1 [SR 41939] (Benzylsulfonyl-FF[Sta]A[Sta]-OMe)

>  <u>
nM

>  <IC50>
17

$$$$
>  <molecule>
COC(=O)C[C@H](O)[C@H](CC(C)C)NC(=O)[C@H](C)NC(=O)C[C@H](O)[C@H](CC(C)C)NC(=O)[C@H](CC(C)C)NC(=O)[C@H](Cc1ccccc1)NC(=O)CC(C)C [SR 41765, iVa--Phe--Leu--Sta--Ala--Sta--OMe] (Isovaleryl-FL[Sta]A[Sta]-OMe)

>  <u>
nM

>  <IC50>
0.33

$$$$
>  <molecule>
COC(=O)C[C@H](O)[C@H](CC(C)C)NC(=O)[C@H](C)NC(=O)C[C@H](O)[C@H](CC(C)C)NC(=O)[C@H](Cc1ccccc1)NC(=O)[C@H](Cc1ccccc1)NC(=O)OCc1ccccc1 [SR 41320, Z--Phe--Phe--Sta--Ala--Sta--OMe] (Cbz-FF[Sta]A[Sta]-OMe)

>  <u>
nM

>  <IC50>
17

$$$$
